So I've got a bunch of molecules here, and I need their TGI values.
test system: T-47D breast; assay: NCI tumour cell line growth inhibition, 48 h
One number for each entry, in µM.

Check out these entries, answers already filled in.
MOLECULE: O=C(/C=C/c1cccc2ccccc12)c1ccccc1
SYSTEM: T-47D breast
VALUE UNIT: µM
TGI: 27.3
//
MOLECULE: Clc1ccc(-c2ccc(CNCC3CCNCC3)o2)c(-c2ccccc2)c1
SYSTEM: T-47D breast
VALUE UNIT: µM
TGI: 3.82
//
MOLECULE: CCc1nc(N)nc(N)c1-c1ccc2c(c1)nnn2CCc1ccccc1
SYSTEM: T-47D breast
VALUE UNIT: µM
TGI: 64.5
//
MOLECULE: C=CCSSC1N=CNc2nc[nH]c21 (stereo unspecified)
SYSTEM: T-47D breast
VALUE UNIT: µM
TGI: 26.5

For the next question, use this molecule.
Task: Please report the measured TGI for COC(=O)c1c(O)ccc2c1c1c(n2CCc2ccccc2)C(=O)c2ccccc2C1=O
Output: 20.8
